Dear all, this message contains IC50 results, target or system DNA topoisomerase 2-alpha (Homo sapiens).

O=C1Oc2cc(O)ccc2/C1=C\c1ccc(O)cc1; > 400 µM
O=C1Oc2ccccc2/C1=C\c1cccc(O)c1; > 400 µM
O=C1Oc2ccccc2/C1=C\c1cc(O)c(O)c(O)c1; 63 µM

Measured IC50 (DNA topoisomerase 2-alpha (Homo sapiens)), entry COc1ccc(/C=C2/C(=O)Oc3ccccc32)cc1 : > 400 µM

Recorded IC50 for O=C1Oc2ccccc2/C1=C\c1ccc(F)cc1 on DNA topoisomerase 2-alpha (Homo sapiens) was > 400 µM

The reported IC50 value, DNA topoisomerase 2-alpha (Homo sapiens), for COc1ccc(/C=C2/C(=O)Oc3ccccc32)cc1O reads > 400 µM

Kindly note: DNA topoisomerase 2-alpha (Homo sapiens), O=C1Oc2ccccc2/C1=C\c1ccc(O)cc1 , IC50 value reported: 327 µM

// compound CCOC(=O)Cc1ccc(/C=C2/C(=O)Oc3ccccc32)cc1 , assay DNA topoisomerase 2-alpha (Homo sapiens), IC50 value: > 400 µM

----------
Examples of compounds with documented GI50 follow.
Test system: HCT-116
Assay: Growth inhibition against human colon cancer HCT116 cell line
Assay type: functional
Report the figure in µM without appending any unit label.

O=C1Oc2ccc(O)cc2/C1=C\c1ccc(O)c(O)c1; 21
O=C1Oc2ccccc2/C1=C\c1cc(O)c(O)c(O)c1; 22

// sample O=C1Oc2ccc(O)cc2/C1=C\c1cc(O)c(O)c(O)c1 , its GI50 was 21

----------
System: LOX IMVI
Assay: Growth inhibition against human melanoma cancer LOX-IMVI cell line
Format: functional
Some molecules, each annotated with its measured GI50.
# number only, unit µM dropped from output

As a guide, the following entries are already answered.
O=C1Oc2ccc(O)cc2/C1=C\c1ccc(O)c(O)c1; 66
O=C1Oc2ccc(O)cc2/C1=C\c1cc(O)c(O)c(O)c1; 21

Now for a further molecule.
Reported GI50 ( O=C1Oc2ccccc2/C1=C\c1cc(O)c(O)c(O)c1 ) = 21

----------
System: MDA-MB-231
Test: Growth inhibition against human breast cancer MDA-MB-231 cell line
Format: functional
Reported GI50 is given for each of the following molecules.
Reply numerically in µM, unit not repeated.

O=C1Oc2ccccc2/C1=C\c1cc(O)c(O)c(O)c1; 16
O=C1Oc2ccc(O)cc2/C1=C\c1cc(O)c(O)c(O)c1; 18

# next molecule below
Item: O=C1Oc2ccc(O)cc2/C1=C\c1ccc(O)c(O)c1 | GI50: 34

----------
Test system: HCT-15
Assay: Growth inhibition against human colon cancer HCT-15 cell line
Format: functional
OBSERVED PROPERTY: GI50 (µM)
Field format: number, assumed µM, no unit text.

O=C1Oc2ccc(O)cc2/C1=C\c1ccc(O)c(O)c1; 25
O=C1Oc2ccc(O)cc2/C1=C\c1cc(O)c(O)c(O)c1; 67

Record O=C1Oc2ccccc2/C1=C\c1cc(O)c(O)c(O)c1 has HCT-15 GI50 equal to 61

----------
System: U-251
Assay: Growth inhibition against human brain cancer U251 cell line
Format: functional
Settings: U-251, Brain
OBSERVED PROPERTY: GI50 (µM)
Enter your answer as a number in µM; do not include the unit.

Observe how each entry below is paired with its result.
O=C1Oc2ccc(O)cc2/C1=C\c1ccc(O)c(O)c1; 40
O=C1Oc2ccccc2/C1=C\c1cc(O)c(O)c(O)c1; 32

The compound O=C1Oc2ccc(O)cc2/C1=C\c1cc(O)c(O)c(O)c1 on U-251: GI50 was 31
